# System: ZIKV Paraiba/2015
# ASSAY_COMMENT: Viral inhibition assay, post-treatment, human A549 cells
# Assay type: cell-based, Zika virus
# TEST_SETTINGS: Paraiba/2015, A549 cells
RECORDED_METRIC: inhibitor category based on SI-MTT and SI-XTT

| COMPOUND | EXPERIMENTAL_RESULT |
| --- | --- |
| O=C(O)C1=CC(=C(c2ccc(O)c(C(=O)O)c2)c2ccc(O)c(C(=O)O)c2)C=CC1=O | weak |
| NC(=O)c1[nH]nc([C@@H]2O[C@H](CO)[C@@H](O)[C@H]2O)c1O | moderate |
| O=c1cnn([C@@H]2O[C@H](CO)[C@@H](O)[C@H]2O)c(=O)[nH]1 | moderate |
| CCCCCC[C@H]1C(=O)O[C@H](C)[C@H](NC(=O)c2cccc(NC=O)c2O)C(=O)O[C@@H](C)[C@@H]1OC(=O)CC(C)C [Antimycin A] | weak |
| NCC(=O)Nc1ccc(-n2nc(C(F)(F)F)cc2-c2ccc3c(ccc4ccccc43)c2)cc1 | moderate |

----------
Listed next: entries and their corresponding MIC.
# System: ZIKV PRVABC59 strain
# ASSAY_COMMENT: Viral inhibition assay, post-treatment, new World strain, Vero cells
# Format: cell-based, Zika virus
# TEST_SETTINGS: Zika virus; new World ZIKV PRVABC59; read-out: PRVABC59 MIC (maximum effective concentration)

| COMPOUND | MIC |
| --- | --- |
| CCCCCC[C@H]1C(=O)O[C@H](C)[C@H](NC(=O)c2cccc(NC=O)c2O)C(=O)O[C@@H](C)[C@@H]1OC(=O)CC(C)C [Antimycin A] | < 33.3 µM |
| COc1c(C)c2c(c(O)c1C/C=C(\C)CCC(=O)O)C(=O)OC2 [Mycophenolic acid] | < 1.23 µM |
| O=c1cnn([C@@H]2O[C@H](CO)[C@@H](O)[C@H]2O)c(=O)[nH]1 [Azauridine, 6-azauridine] | < 11.1 µM |
| COc1c(C)c2c(c(O)c1C/C=C(\C)CCC(=O)OCCN1CCOCC1)C(=O)OC2 [Mycophenolate mofetil] | < 1.23 µM |
| O=C(O)C1=CC(=C(c2ccc(O)c(C(=O)O)c2)c2ccc(O)c(C(=O)O)c2)C=CC1=O [ATA, Aurintricarboxylic acid] | < 33.3 µM |
| NC(=O)c1[nH]nc([C@@H]2O[C@H](CO)[C@@H](O)[C@H]2O)c1O [Pyrazofurin] | < 3.7 µM |
| NCC(=O)Nc1ccc(-n2nc(C(F)(F)F)cc2-c2ccc3c(ccc4ccccc43)c2)cc1 [OSU-03012] | > 11.1 µM |

----------
# Tested on: ZIKV Paraiba/2015
# ASSAY_COMMENT: Viral inhibition assay, post-treatment, human A549 cells
# Type: cell-based, Zika virus
# TEST_SETTINGS: Paraiba/2015, A549 cells
Where a name gives a salt, the structure may show the parent alone.
RECORDED_METRIC: inhibitor category based on SI-MTT and SI-XTT

| COMPOUND | EXPERIMENTAL_RESULT |
| --- | --- |
| COc1c(C)c2c(c(O)c1C/C=C(\C)CCC(=O)OCCN1CCOCC1)C(=O)OC2 [Mycophenolate mofetil] | weak |
| COc1c(C)c2c(c(O)c1C/C=C(\C)CCC(=O)O)C(=O)OC2 | weak |
| COC1=CC(c2cc3ccccc3[nH]2)=N/C1=C\c1[nH]c(C)cc1C [Obatoclax, Obatoclax mesylate] | weak |
